Hello, the source for this data is ChEMBL document CHEMBL4033676, in case you need it.

- assay-system: Amine oxidase [flavin-containing] A (Homo sapiens)
- Sequence (P21397 whole entry): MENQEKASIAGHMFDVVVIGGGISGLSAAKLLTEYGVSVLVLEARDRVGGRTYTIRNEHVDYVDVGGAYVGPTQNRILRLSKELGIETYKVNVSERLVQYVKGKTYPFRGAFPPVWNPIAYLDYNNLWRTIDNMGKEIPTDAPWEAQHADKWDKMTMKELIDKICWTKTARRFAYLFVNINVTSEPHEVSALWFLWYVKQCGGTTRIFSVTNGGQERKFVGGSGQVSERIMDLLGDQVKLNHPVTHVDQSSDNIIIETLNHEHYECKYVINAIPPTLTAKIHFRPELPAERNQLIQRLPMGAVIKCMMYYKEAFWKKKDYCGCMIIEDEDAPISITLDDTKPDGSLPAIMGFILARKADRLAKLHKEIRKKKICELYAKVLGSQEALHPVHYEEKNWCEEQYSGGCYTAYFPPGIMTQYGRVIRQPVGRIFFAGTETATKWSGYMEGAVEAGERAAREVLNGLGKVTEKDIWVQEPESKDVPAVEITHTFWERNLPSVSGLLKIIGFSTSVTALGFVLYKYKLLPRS
- experimental-protocol: Inhibition of recombinant human MAO-A expressed in baculovirus infected BTI insect cells using kynuramine as substrate after 30 mins by fluorescence assay
Listed below: IC50 values for each entry.
Just the number please, in µM, no unit attached.

Answered examples (3):
# structure-smiles, u, IC50
measured = [
    ("O=C1CCc2ccc(OCCCCN3CCN(c4ccccn4)CC3)cc2N1", "µM", 6.9),
    ("CC(C)N1CCN(CCCOc2ccc3c(c2)NC(=O)CC3)CC1", "µM", 9.4),
    ("CC(C)N1CCN(CCCCCOc2ccc3c(c2)NC(=O)CC3)CC1", "µM", 8.2),
]

The compound `O=C1CCc2ccc(OCCCCCCN3CCc4ccccc4C3)cc2N1` showed IC50 equal to 3.4

# IC50 (compound: `C#CCN(CCCCOc1ccc2c(c1)NC(=O)CC2)Cc1ccccc1` ) is 9.3

# compound `O=C1CCc2ccc(OCCCCN3CCc4ccccc4C3)cc2N1` ; its IC50 = 4.9

Kindly note the recorded IC50 for `O=C1CCc2ccc(OCCCCCN3CCN(c4ccccn4)CC3)cc2N1` , which is 13

The compound identified as `C#CCN(CCCCCOc1ccc2c(c1)NC(=O)CC2)Cc1ccccc1` registered its IC50 at 8.9

IC50 recorded for this compound, `O=C1CCc2ccc(OCCCN3CCc4ccccc4C3)cc2N1` , is 8.6

For reference, reported IC50 for `O=C1CCc2ccc(OCCCCCN3CCc4ccccc4C3)cc2N1` stands at 4.6

The compound listed as `CCN(CC)CCCCCOc1ccc2c(c1)NC(=O)CC2` shows IC50 equal to 11.4

----------
- assay-system: Acetylcholinesterase (Electrophorus electricus, UniProt O42275)
- Sequence (O42275 whole entry): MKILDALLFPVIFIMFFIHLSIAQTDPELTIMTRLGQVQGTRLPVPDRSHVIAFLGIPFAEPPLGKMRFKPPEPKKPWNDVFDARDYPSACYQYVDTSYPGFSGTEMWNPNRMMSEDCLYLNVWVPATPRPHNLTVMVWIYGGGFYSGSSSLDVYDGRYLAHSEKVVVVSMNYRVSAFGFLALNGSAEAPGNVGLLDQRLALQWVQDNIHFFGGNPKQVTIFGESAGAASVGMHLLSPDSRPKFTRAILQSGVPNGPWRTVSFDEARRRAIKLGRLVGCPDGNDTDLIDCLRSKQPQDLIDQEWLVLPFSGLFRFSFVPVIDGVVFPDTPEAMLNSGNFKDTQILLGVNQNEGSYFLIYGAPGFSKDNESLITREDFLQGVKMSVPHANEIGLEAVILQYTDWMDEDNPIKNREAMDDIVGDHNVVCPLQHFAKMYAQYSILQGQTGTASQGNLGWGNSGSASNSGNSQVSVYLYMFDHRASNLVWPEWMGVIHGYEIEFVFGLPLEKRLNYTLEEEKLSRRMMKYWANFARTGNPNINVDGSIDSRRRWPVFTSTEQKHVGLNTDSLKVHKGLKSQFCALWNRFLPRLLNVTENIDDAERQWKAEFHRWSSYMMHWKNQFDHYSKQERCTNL
Catalogue of IC50 readings, one per entry.
Could you give me the number in µM? Just the number is fine.

`CCN(CC)CCCCCCOc1ccc2c(c1)NC(=O)CC2` yielded IC50 of 13.3

compound `O=C1CCc2ccc(OCCCCCCN3CCN(Cc4ccccc4)CC3)cc2N1` , IC50 observed: 12.9

----------
- experimental-protocol: Inhibition of rat serum BuChE using butyrylthiocholine chloride as substrate after 15 mins by Ellman's method
pIC50: −log10 of the molar value.
Cut-off 5 on pIC50, inclusive. At or above means yes; below means no.

# molecule, qualitative-label
records = [
    ("O=C1CCc2ccc(OCCCCCCN3CCC(N4CCCC4)CC3)cc2N1", "no"),
    ("O=C1CCc2ccc(OCCCCN3CCN(Cc4ccccc4)CC3)cc2N1", "no"),
    ("O=C1CCc2ccc(OCCCCCCN3CCN(c4ccccn4)CC3)cc2N1", "no"),
    ("CCN(CC)CCCCCOc1ccc2c(c1)NC(=O)CC2", "no"),
    ("O=C1CCc2ccc(OCCCCN3CCCCC3)cc2N1", "no"),
]

I'd appreciate it if you could say whether `CCN(CC)CCCCCCOc1ccc2c(c1)NC(=O)CC2` has pIC50 at least equal to 5.
no

Evaluate `C#CCN(CCCCCCOc1ccc2c(c1)NC(=O)CC2)Cc1ccccc1` : pIC50 at minimum 5?
no

For this molecule, is measured pIC50 5 or higher? COc1cc2c(cc1OC)C(=O)C(CC1CCN(Cc3ccccc3)CC1)C2 (centres undefined) [DONEPEZIL]
yes

Answer whether pIC50 of `C#CCN(CCCCOc1ccc2c(c1)NC(=O)CC2)Cc1ccccc1` is greater than or equal to 5.
no

Is it the case that `CC(C)N1CCN(CCCCCOc2ccc3c(c2)NC(=O)CC3)CC1` has pIC50 reaching or exceeding 5?
yes

API: above_or_equal(metric=pIC50, cutoff=5) for item `CCN(CC)CCCOc1ccc2c(c1)NC(=O)CC2`
no

Tell me whether pIC50 is at least 5 here: `O=C1CCc2ccc(OCCCCCN3CCN(c4ccccn4)CC3)cc2N1`
no
